Numbers sourced from patent US6492416B1.

# assayed-system: COX-1 (Mus musculus, UniProt P22437)
# Sequence (P22437 27-602): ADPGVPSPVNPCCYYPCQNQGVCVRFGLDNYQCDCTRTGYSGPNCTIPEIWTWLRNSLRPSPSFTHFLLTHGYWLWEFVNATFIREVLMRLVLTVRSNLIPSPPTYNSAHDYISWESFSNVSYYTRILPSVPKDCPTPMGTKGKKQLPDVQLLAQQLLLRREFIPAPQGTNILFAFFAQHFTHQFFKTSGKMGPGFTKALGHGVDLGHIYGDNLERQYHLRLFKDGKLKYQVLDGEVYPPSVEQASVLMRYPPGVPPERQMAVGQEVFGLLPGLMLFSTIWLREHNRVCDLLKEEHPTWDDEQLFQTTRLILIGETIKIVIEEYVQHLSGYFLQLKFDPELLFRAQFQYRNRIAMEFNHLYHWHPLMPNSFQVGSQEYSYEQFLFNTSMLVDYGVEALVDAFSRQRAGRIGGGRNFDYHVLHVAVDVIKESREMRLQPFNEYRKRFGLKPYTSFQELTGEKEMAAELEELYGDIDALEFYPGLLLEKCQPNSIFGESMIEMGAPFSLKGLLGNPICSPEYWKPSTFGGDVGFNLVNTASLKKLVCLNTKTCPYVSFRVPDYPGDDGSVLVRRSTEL
# assay: Evaluation of COX-1 activity: PGE2 formation in mouse peritoneal macrophages without aspirin and LPS treatment
# Type: cell-based
Label scheme, based on IC50, μg/ml COX-1: b0 (below 5 µg/mL), b1 (5 µg/mL to below 30 µg/mL), b2 (30 µg/mL or more)

Problem: Category lookup for the molecule CCC1(C)OC(c2ccc(S(C)(=O)=O)cc2)=C(c2ccccc2)C1=O (stereo not shown) [Example 31]
Solution: b1

Problem: Input CC1(C)OC(c2ccc(S(C)(=O)=O)cc2F)=C(c2cc(F)ccc2F)C1=O [Example 325] ; output its category
Solution: b2

Problem: Could you tell me which band CC1(C)OC(c2ccc(S(N)(=O)=O)cc2F)=C(c2cc(F)cc(F)c2)C1=O [Example 335] belongs to?
Solution: b0
